- Assayed System: CYP2C9 (Homo sapiens, UniProt P11712)
- Sequence (P11712 whole entry): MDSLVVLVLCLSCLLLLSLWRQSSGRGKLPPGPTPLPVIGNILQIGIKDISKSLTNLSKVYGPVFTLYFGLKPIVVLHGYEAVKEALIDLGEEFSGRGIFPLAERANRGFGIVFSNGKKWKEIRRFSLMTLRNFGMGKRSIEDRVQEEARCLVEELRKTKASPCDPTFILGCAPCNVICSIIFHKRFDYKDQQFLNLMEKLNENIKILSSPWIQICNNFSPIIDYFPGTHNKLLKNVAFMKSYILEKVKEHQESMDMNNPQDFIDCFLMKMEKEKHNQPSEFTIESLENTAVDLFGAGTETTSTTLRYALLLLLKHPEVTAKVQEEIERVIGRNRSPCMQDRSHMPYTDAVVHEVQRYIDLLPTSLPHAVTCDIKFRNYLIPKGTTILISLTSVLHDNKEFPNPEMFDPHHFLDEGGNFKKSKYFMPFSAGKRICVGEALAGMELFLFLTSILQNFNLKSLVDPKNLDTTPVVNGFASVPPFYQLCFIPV
- Assay Notes: Inhibition of CYP2C9 (unknown origin)-mediated diclofenac metabolite conversion at 10 uM after 20 mins relative to control
- Format: ADME
- Assay Conditions: probe diclofenac

{"columns": ["Mol", "inhibition at 20 min, 10 µM, %"],
 "data": [
  ["O=C(Nc1cc(NS(=O)(=O)c2cccs2)cc(-c2csc(=O)[nH]2)c1)c1cccs1", 41],
  ["O=c1[nH]c(-c2cccc(NS(=O)(=O)c3cccs3)c2)cs1", 34]
]}

###

Below, each entry is listed with its recorded GI50.
- Test system: HT-29
- Assay Notes: Growth inhibition of human HT-29 cells after 72 hrs by sulforhodamine B assay
- Format: functional
- Assay Conditions: HT-29, 72 h
Recorded Endpoint: GI50 (µM)

{"columns": ["Mol", "Unit Of Measurement", "Measurement"],
 "data": [
  ["Cc1noc(C)c1-c1ccccc1", "µM", 22.5],
  ["Nc1cc(NS(=O)(=O)c2cccs2)cc(-c2csc(=O)[nH]2)c1", "µM", 37.3],
  ["O=C(Nc1cc(-c2csc(=O)[nH]2)ccc1NS(=O)(=O)c1cccs1)C1CCCC1", "µM", 63.6],
  ["O=c1[nH]c(-c2cccc(NS(=O)(=O)c3ccc(F)cc3)c2)cs1", "µM", 47.8]
]}

Hey, just so you know, these numbers are from ChEMBL document CHEMBL2346589.
